# Test system: Plasmodium berghei
# assay procedure: Screen against P. berghei liver stage (PbLuc), transformed with Luciferase, at 10uM
# Assay type: functional, HepG2
# test context: tested at 10 uM
Hit rate of the full screen: of about 69,000 compounds, about 8,600 (12%) showed an effect of 50% or more. The sample as a whole holds a higher share of strong results than the screen did.
measurement label: INHIBITION

query: Please look up its INHIBITION: `CN(C)CCO[C@@H]1CC[C@H]2[C@H]1OCCN2C(=O)c1ccncc1`
result: 29.3%

query: Please look up its INHIBITION: `Cn1cccc1C(=O)N1C[C@@H]2CCCO[C@@H]2[C@H](N2CCOCC2)C1`
result: 30.5%

query: Please look up its INHIBITION: `Cc1ccc(C(=O)N2C[C@@H]3CCCO[C@@H]3[C@H](N3CCCC3)C2)cn1`
result: 30.5%

This collection of values is drawn from ChEMBL document CHEMBL4513216.
